Hello, the source for this data is ChEMBL document CHEMBL1201862, in case you need it.

- Test system: MDA-MB-231
- Procedure text: NCI tumour cell line growth inhibition, 48 h
Activity calls are given as the source filed them. No stated cut-off is given here; in the data, active = GI50 up to about 1.1 µM and inactive = higher.
This listing pairs compounds with measured GI50.

# annotated cases, reported GI50 shown
| Compound | Assay target | GI50 |
| --- | --- | --- |
| CSc1c(C)[n+]([O-])c2cc(Cl)c(Cl)cc2[n+]1[O-] | MDA-MB-231 | 20.2 µM (inactive) |
| CCCCCCCCCCCCCCCCNc1ccn(C2CC(O)C(COC(c3ccccc3)(c3ccccc3)c3ccc(OC)cc3)O2)c(=O)n1 (stereo not given) | MDA-MB-231 | > 100 µM (inactive) |
| O=C(OC[C@H]1C[C@H]2C(=O)OCCC[C@H]2O1)c1ccccc1 | MDA-MB-231 | > 100 µM (inactive) |
| Clc1ccccc1-c1nc2cc(C34CC5CC(CC(C5)C3)C4)ccc2[nH]1 | MDA-MB-231 | 15 µM (inactive) |

Here is another compound to look at.
Per the record, CN(C(=O)C12C3C4C1C1C2C3C41C(=O)O)C(C)(C)C (stereo not given) has GI50 of > 100 µM (inactive)
